# target-system: UniProt P35462
# Sequence (P35462 whole entry): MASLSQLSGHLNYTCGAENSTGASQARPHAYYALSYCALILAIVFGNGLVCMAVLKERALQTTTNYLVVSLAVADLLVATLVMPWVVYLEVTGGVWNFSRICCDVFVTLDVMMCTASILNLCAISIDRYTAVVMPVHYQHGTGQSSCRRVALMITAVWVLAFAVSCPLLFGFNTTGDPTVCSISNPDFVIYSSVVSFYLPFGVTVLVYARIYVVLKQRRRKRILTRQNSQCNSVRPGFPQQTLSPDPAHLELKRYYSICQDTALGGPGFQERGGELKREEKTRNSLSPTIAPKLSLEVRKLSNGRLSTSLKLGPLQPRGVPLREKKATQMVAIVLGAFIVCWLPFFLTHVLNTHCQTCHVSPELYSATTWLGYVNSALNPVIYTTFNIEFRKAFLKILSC
endpoint-name: EC50 (nM)

[a] N#Cc1cc2cc(OCCCCN3CCN(c4cccc(Cl)c4Cl)CC3)ccn2n1
[b] O/N=C/c1cc2cc(OCCCCN3CCN(c4cccc(Cl)c4Cl)CC3)ccn2n1
Q: Returns: the argument ( a or b ) having the larger EC50. When you have decided, please share the label of that item.
Result: a
(a: 41 nM, b: 15 nM)

[P] Clc1cccc(N2CCN(CCCCOc3ccc4ccnn4c3)CC2)c1Cl
[Q] OCc1cc2cc(OCCCCN3CCN(c4cccc(Cl)c4Cl)CC3)ccn2n1
[R] N#Cc1cnn2ccc(OCCCCN3CCN(c4cccc(Cl)c4Cl)CC3)cc12
Q: Output the entries ranked by EC50 from maximum down to minimum. # list labels per requested ordering
Result: P, R, Q
(P: 41 nM, R: 12 nM, Q: 5.9 nM)

[P] O/N=C/c1cnn2ccc(OCCCCN3CCN(c4cccc(Cl)c4Cl)CC3)cc12 (stereo in doubt; 8a)
[Q] O=Cc1cnn2cc(OCCCCN3CCN(c4cccc(Cl)c4Cl)CC3)ccc12
[R] Clc1cccc(N2CCN(CCCCOc3ccn4nccc4c3)CC2)c1Cl
Q: Output the entries ranked by EC50 from maximum down to minimum. # list labels per requested ordering
Result: Q, R, P
(Q: 110 nM, R: 66 nM, P: 42 nM)

[I] CCOC(=O)c1cc2cc(OCCCCN3CCN(c4cccc(Cl)c4Cl)CC3)ccn2n1
[II] O/N=C/c1cnn2ccc(OCCCCN3CCN(c4cccc(Cl)c4Cl)CC3)cc12 (stereo in doubt; 8b)
[III] O=Cc1cnn2ccc(OCCCCN3CCN(c4cccc(Cl)c4Cl)CC3)cc12
Q: Output the entries ranked by EC50 from maximum down to minimum. # list labels per requested ordering
Result: I, II, III
(I: 57 nM, II: 39 nM, III: 1.9 nM)

Where these numbers come from: ChEMBL document CHEMBL3286313
